# method.summary: Oral bioavailability at 10 mg/kg was determined in rat
# Assay type: ADME, organism-based
# experimental.setup: in vivo, read-out: Bioavailabiility
property.name: bioavailability (%)

| molecule.smiles | property.name | result |
| --- | --- | --- |
| CCC[C@@H]1CC(=O)N([C@@H](CC)C(N)=O)C1 | bioavailability | 100 |

----------
# method.summary: Half life at 1 mg/kg was determined in rat
# Assay type: ADME, organism-based
# Design: dose 1 mg/kg
# experimental.setup: in vivo

| molecule.smiles | half-life |
| --- | --- |
| CC[C@@H](C(N)=O)N1C[C@H](CI)CC1=O | 120 min |

This collection of values is drawn from ChEMBL document CHEMBL1148391.
